Hey, just so you know, these numbers are from patent US9133183B2.

Quick list: pIC50 per entry.
test system: osteoclast precursors; test: Osteoclast tartrate-resistant acid phosphatase assay; format: cell-based; conditions: Osteoclast, 7-14 days, RANKL and M-CSF
pIC50: −log10 of the molar value.

Before answering, review these 4 worked examples.
# MOLECULE, pIC50
rows = [
    ("Cc1cc(NC(=O)N2CCN(C3CCCC3)C2=O)nc(C)c1Oc1ccnc(-c2cnn(C)c2)c1 [Example 72]", "> 8.00"),
    ("Cc1cc(-c2cc(Oc3ccc(NC(=O)N4CCN(C5CCOCC5)C4=O)nc3)ccn2)on1 [Example 7]", "7.00 to 8.00"),
    ("COCCN1CCN(C(=O)Nc2ccc(Oc3ccnc(-c4cnn(C)c4)c3)c(C)n2)C1=O [Example 18]", "7.00 to 8.00"),
    ("Cc1nc(NC(=O)N2CCN(C3COC3)C2=O)ccc1Oc1ccnc(-c2cnn(C)c2)c1 [Example 20]", "7.00 to 8.00"),
]

Just so you know, measured pIC50 for O=C(Nc1cc(Cl)c(Oc2ccnc(-c3cn[nH]c3)c2)cc1F)N1CCN(C2CCOCC2)C1=O [Example 94] came out at 6.00 to 7.00

Looking up COC1(CCN2CCN(C(=O)Nc3cc(Cl)c(Oc4ccnc(-c5cnn(C)c5)c4)cc3F)C2=O)CC1 [Example 99] , I found its pIC50 recorded as 7.00 to 8.00

Entry under test: Cc1ccc(-c2cc(Oc3ccc(NC(=O)N4CCN(C5CCOCC5)C4=O)nc3C)ccn2)cn1 [Example 54] . Its pIC50 was 7.00 to 8.00

For Cn1cc(-c2cc(Oc3ccc(NC(=O)N4CCN(CC(F)(F)F)C4=O)nc3)ccn2)cn1 [Example 48] the molecule record lists pIC50 as > 8.00

---

# reported IC50; entries follow
target: unphosphorylated PDGFRβ kinase (uPDGFRβ, Seq. ID No. 3) (Homo sapiens (Human)); test: Unphosphorylated PDGFRβ kinase assay (coupled pyruvate kinase/lactate dehydrogenase); settings: enzymatic assay, ATP 500 μM
Sequence (P09619 557-1106): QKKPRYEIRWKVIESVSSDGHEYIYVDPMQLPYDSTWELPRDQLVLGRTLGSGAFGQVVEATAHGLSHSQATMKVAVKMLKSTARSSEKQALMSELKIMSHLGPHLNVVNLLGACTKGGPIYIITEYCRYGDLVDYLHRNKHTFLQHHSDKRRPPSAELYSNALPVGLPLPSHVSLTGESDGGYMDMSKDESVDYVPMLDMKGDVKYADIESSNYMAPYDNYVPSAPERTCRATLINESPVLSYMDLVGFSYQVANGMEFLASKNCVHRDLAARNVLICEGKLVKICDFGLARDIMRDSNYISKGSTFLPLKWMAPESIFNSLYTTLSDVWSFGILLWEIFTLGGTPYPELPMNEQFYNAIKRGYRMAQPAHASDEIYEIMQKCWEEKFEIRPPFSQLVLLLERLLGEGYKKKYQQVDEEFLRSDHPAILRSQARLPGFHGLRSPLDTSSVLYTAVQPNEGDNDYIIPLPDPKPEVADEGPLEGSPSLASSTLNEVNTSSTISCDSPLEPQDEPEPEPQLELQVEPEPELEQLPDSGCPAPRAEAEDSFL

# COMPOUND, ASSAY VALUE
records = [
    ("CCc1nc(NC(=O)N2CCN(CC(F)(F)F)C2=O)ccc1Oc1ccnc(-c2cnn(C)c2)c1 [Example 56]", "> 1 µM"),
    ("[2H]C([2H])([2H])n1cc(-c2cc(Oc3ccc(NC(=O)N4CCN(CCOC)C4=O)nc3C)ccn2)cn1 [Example 39]", "> 1 µM"),
]

Now for a further compound.
Recorded IC50 for COCCN1CCN(C(=O)Nc2ccc(Oc3ccnc(-c4ccc(C5CCN(C)CC5)cc4)c3)c(C)n2)C1=O [Example 80] on unphosphorylated PDGFRβ kinase (uPDGFRβ, Seq. ID No. 3) (Homo sapiens (Human)) was > 1 µM

---

tested on: osteoclast precursors; test: Osteoclast tartrate-resistant acid phosphatase assay; format: cell-based; details: Osteoclast, 7-14 days, RANKL and M-CSF
pIC50: −log10 of the molar value.
PROPERTY LABEL: pIC50

Known results for compounds:
# STRUCTURE, pIC50
rows = [
    ("Cn1cc(-c2cc(Oc3cc(F)c(NC(=O)N4CCN(C5CCCC5)C4=O)cc3Cl)ccn2)cn1", "> 8.00"),
    ("Cn1cnc(-c2cc(Oc3ccc(NC(=O)N4CCN(CC(F)(F)F)C4=O)nc3)ccn2)c1", "7.00 to 8.00"),
]

Note to self: pIC50 recorded for "Cc1nc(NC(=O)N2CCN(C3CCCC3)C2=O)ccc1Oc1ccnc(-c2cnn(C)c2)c1" was > 8.00

In plain terms, "CCN1CCN(C(=O)Nc2ccc(Oc3ccnc(-c4ccc(N5CCN(C)CC5)cc4)c3)c(C)n2)C1=O" has a documented pIC50 of > 8.00

---

target: unphosphorylated c-FMS kinase (uFMS, Seq. ID no. 1) (Homo sapiens (Human), UniProt P07333); test: uFMS kinase assay (ADP production coupled to pyruvate kinase/lactate dehydrogenase); assay type: biochemical; conditions: enzymatic assay, ATP 500 μM; read-out: uFMS
Sequence (P07333 538-972): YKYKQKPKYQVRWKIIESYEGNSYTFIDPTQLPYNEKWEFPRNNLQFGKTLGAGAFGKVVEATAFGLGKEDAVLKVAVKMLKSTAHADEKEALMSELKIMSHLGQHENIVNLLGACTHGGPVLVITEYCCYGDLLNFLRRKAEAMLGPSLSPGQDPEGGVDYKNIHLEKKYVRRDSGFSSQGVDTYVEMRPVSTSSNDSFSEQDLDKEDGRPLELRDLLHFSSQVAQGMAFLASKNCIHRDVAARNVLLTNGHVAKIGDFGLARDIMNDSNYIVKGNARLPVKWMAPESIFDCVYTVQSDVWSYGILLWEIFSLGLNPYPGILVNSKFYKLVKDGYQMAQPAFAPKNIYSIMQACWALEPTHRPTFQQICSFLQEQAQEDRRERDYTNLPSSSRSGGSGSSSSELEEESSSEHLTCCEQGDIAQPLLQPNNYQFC
pIC50: −log10 of the molar value.
PROPERTY LABEL: pIC50

# MOLECULE, pIC50
records = [
    ("COCCN1CCN(C(=O)Nc2ccc(Oc3ccnc(-c4cnc(C)s4)c3)cn2)C1=O [Example 62]", "6.00 to 7.00"),
]

Reported pIC50 for Cn1cc(-c2cc(Oc3ccc(NC(=O)N4CCN(C5CCOCC5)C4=O)c(F)c3)ccn2)cn1 [Example 95] was 7.00 to 8.00

Lab note: Cc1nc(NC(=O)N2CCN(C3CCOCC3)C2=O)ccc1Oc1ccnc(-c2cn[nH]c2)c1 [Example 9] gave pIC50 of 7.00 to 8.00

Entry Cc1cc(-c2cc(Oc3ccc(NC(=O)N4CCN(C5CCOCC5)C4=O)nc3C)ccn2)ccn1 [Example 87] ; pIC50 = > 8.00

---

Reported pIC50 values follow for various compounds
tested on: osteoclast precursors; assay: Osteoclast tartrate-resistant acid phosphatase assay; format: cell-based; settings: Osteoclast, 7-14 days, RANKL and M-CSF
pIC50: −log10 of the molar value.

# count of solved cases: 5
# COMPOUND, SYSTEM, pIC50
rows = [
    ("Cc1nc(NC(=O)N2CCN(C3CC3)C2=O)ccc1Oc1ccnc(-c2ccc(C3CCN(C)CC3)cc2)c1", "osteoclast precursors", "> 8.00"),
    ("Cn1cc(-c2cc(Oc3ccc(NC(=O)N4CCN(C5COC5)C4=O)nc3)ccn2)cn1", "osteoclast precursors", "7.00 to 8.00"),
    ("COCCN1CCN(C(=O)Nc2ccc(Oc3ccnc(-c4cnc(C)s4)c3)cn2)C1=O", "osteoclast precursors", "6.00 to 7.00"),
    ("COCCCN1CCN(C(=O)Nc2cc(Cl)c(Oc3ccnc(-c4cnn(C)c4)c3)cc2F)C1=O", "osteoclast precursors", "6.00 to 7.00"),
    ("Cc1nc(NC(=O)N2CCN(C3CCC(F)(F)CC3)C2=O)ccc1Oc1ccnc(-c2cnn(C)c2)c1", "osteoclast precursors", "7.00 to 8.00"),
]

Next, consider the following compound.
// field: pIC50; key: "Cn1cc(-c2cc(Oc3cc(F)c(NC(=O)N4CCN(CCOC(F)(F)F)C4=O)cc3Cl)ccn2)cn1" ; value = 6.00 to 7.00

---

biological target: unphosphorylated PDGFRβ kinase (uPDGFRβ, Seq. ID No. 3) (Homo sapiens (Human)); test: Unphosphorylated PDGFRβ kinase assay (coupled pyruvate kinase/lactate dehydrogenase); conditions: enzymatic assay, ATP 500 μM
pIC50: −log10 of the molar value.
PROPERTY LABEL: pIC50

# count of solved cases: 5
# COMPOUND, ASSAY VALUE
rows = [
    ("Cc1nc(NC(=O)N2CCN([C@@H]3CCOC3)C2=O)ccc1Oc1ccnc(-c2cnn(C)c2)c1", "< 6.00"),
    ("Cc1nc(NC(=O)N2CCN(C3CCCCC3)C2=O)ccc1Oc1ccnc(-c2cnn(C)c2)c1", "< 6.00"),
    ("COCCCN1CCN(C(=O)Nc2cc(Cl)c(Oc3ccnc(-c4cnn(C)c4)c3)cc2F)C1=O", "< 6.00"),
    ("COC[C@H](C)N1CCN(C(=O)Nc2ccc(Oc3ccnc(-c4cnn(C)c4)c3)cn2)C1=O", "6.00 to 7.00"),
    ("Cn1cc(-c2cc(Oc3cc(F)c(NC(=O)N4CCN(C5CCC(F)(F)CC5)C4=O)cc3Cl)ccn2)cn1", "< 6.00"),
]

Record "Cn1cc(-c2cc(Oc3ccc(NC(=O)N4CCN(C5CCCCC5)C4=O)nc3)ccn2)cn1" ; system unphosphorylated PDGFRβ kinase (uPDGFRβ, Seq. ID No. 3) (Homo sapiens (Human)); pIC50 = 7.00 to 8.00

Short answer on unphosphorylated PDGFRβ kinase (uPDGFRβ, Seq. ID No. 3) (Homo sapiens (Human)) for "CCN1CCN(C(=O)Nc2ccc(Oc3ccnc(C(=O)NC)c3)cn2)C1=O" , pIC50: < 6.00

Readout pIC50 for "CCn1cc(-c2cc(Oc3ccc(NC(=O)N4CCN(C5CCOCC5)C4=O)nc3)ccn2)cn1" , test system unphosphorylated PDGFRβ kinase (uPDGFRβ, Seq. ID No. 3) (Homo sapiens (Human)), was 6.00 to 7.00

Assay unphosphorylated PDGFRβ kinase (uPDGFRβ, Seq. ID No. 3) (Homo sapiens (Human)), sample "Cc1ncc(-c2cc(Oc3ccc(NC(=O)N4CCN(C5CCOCC5)C4=O)nc3)ccn2)s1" , pIC50 read: 6.00 to 7.00

Record for "Cn1cnc(-c2cc(Oc3ccc(NC(=O)N4CCN(CC(F)(F)F)C4=O)nc3)ccn2)c1" under target or system unphosphorylated PDGFRβ kinase (uPDGFRβ, Seq. ID No. 3) (Homo sapiens (Human)): pIC50 reported as < 6.00

Value (pIC50, unphosphorylated PDGFRβ kinase (uPDGFRβ, Seq. ID No. 3) (Homo sapiens (Human))) for record Cc1nc(NC(=O)N2CCN(C3CCOC3)C2=O)ccc1Oc1ccnc(-c2cnn(C)c2)c1 (stereo in doubt) = < 6.00

Param item: "CCN1CCN(C(=O)Nc2ccc(Oc3ccnc(NC(C)=O)c3)c(C)n2)C1=O" ; param system: unphosphorylated PDGFRβ kinase (uPDGFRβ, Seq. ID No. 3) (Homo sapiens (Human)); output pIC50: < 6.00

Reported pIC50 (unphosphorylated PDGFRβ kinase (uPDGFRβ, Seq. ID No. 3) (Homo sapiens (Human))) for entry "Cc1nc(NC(=O)N2CCN(C3CCOCC3)C2=O)ccc1Oc1ccnc(-c2cnn(C)c2)c1" is < 6.00
